Data credit: PubChem BioAssay (NCI)

- Test system: HCT-15 colon
- Procedure Details: NCI-60 one-dose screen, 48 h (100 = growth as untreated, 0 = no growth, -100 = all killed)
- Test Settings: 10 µM unless noted
The panel holds about 83,000 compounds, 20% with a hit somewhere; the sample as a whole holds those more often. Active and inactive are the calls of the source. How the source made its calls: active means growth percent below 10; inactive means the rest.
Measured growth values are reported for all entries that follow.

[
  {
    "Molecule": "NC1CC2CCCCC2CC1(O)c1ccccc1 (stereo not drawn)",
    "Measurement Target": "HCT-15 colon",
    "growth": "102% (inactive)"
  },
  {
    "Molecule": "C=CCCCN=C=S",
    "Measurement Target": "HCT-15 colon",
    "growth": "55.4% (inactive)"
  },
  {
    "Molecule": "Cc1cnc(/C=C/C(=O)O)cc1-c1cc2c(cc1C)C(C)(C)CCC2(C)C",
    "Measurement Target": "HCT-15 colon",
    "growth": "53.9% (inactive)"
  },
  {
    "Molecule": "CC[C@H](NC(=O)[C@H]1CCCCN1C)C(=O)N(C)[C@H](C[C@@H](OC(C)=O)c1nc(C(=O)N[C@@H](Cc2ccccc2)C[C@H](C)C(=O)O)cs1)C(C)C",
    "Measurement Target": "HCT-15 colon",
    "growth": "6.42% (active)"
  },
  {
    "Molecule": "CC[C@H](C)[C@H](NC(=O)c1ccccn1)C(=O)N(C)[C@H](C[C@@H](OC(C)=O)c1nc(C(=O)N[C@@H](Cc2ccccc2)C[C@H](C)C(=O)OC)cs1)C(C)C",
    "Measurement Target": "HCT-15 colon",
    "growth": "13.5% (inactive)"
  },
  {
    "Molecule": "CCCCCCCCCCCCNC(c1ccccc1)C(O)c1ccccc1 (stereo not drawn)",
    "Measurement Target": "HCT-15 colon",
    "growth": "66.6% (inactive)"
  },
  {
    "Molecule": "O=C(Nc1ccc([As]=[As]c2ccc(NC(=O)c3ccccc3)cc2)cc1)c1ccccc1 (stereo not drawn)",
    "Measurement Target": "HCT-15 colon",
    "growth": "-79.6% (active)"
  },
  {
    "Molecule": "C[C@]12CCc3nc(Nc4ccccc4F)sc3C1=CC[C@@H]1[C@@H]2CC[C@]2(C)C(=O)CC[C@@H]12",
    "Measurement Target": "HCT-15 colon",
    "growth": "29.3% (inactive)"
  },
  {
    "Molecule": "COC(=O)[C@@]1(C)CC[C@]2(C)CC[C@]3(C)C4=CC=C5C(=CC(=O)C(O)=C5C)[C@]4(C)CC[C@@]3(C)[C@@H]2C1",
    "Measurement Target": "HCT-15 colon",
    "growth": "-83.7% (active)"
  },
  {
    "Molecule": "COC(=O)[C@@H](C)C[C@H](Cc1ccccc1)NC(=O)c1csc([C@@H](C[C@H](C(C)C)N(C)C(=O)C2(NC(=O)[C@H]3CCCCN3C)CCC2)OC(C)=O)n1",
    "Measurement Target": "HCT-15 colon",
    "growth": "17.1% (inactive)"
  },
  {
    "Molecule": "O=C(O)c1ccc([S-])cc1.[Au+].c1ccc(CN2[CH-]N(Cc3ccccc3)C(c3ccccc3)=C2c2ccccc2)cc1",
    "Measurement Target": "HCT-15 colon",
    "growth": "-89.3% (active)"
  },
  {
    "Molecule": "C/C(Cc1ccc(Cl)cc1)=C(\\c1ccc(OCCN2CCOCC2)cc1)c1ccc(OC(=O)Cc2ccccc2)cc1",
    "Measurement Target": "HCT-15 colon",
    "growth": "91.1% (inactive)"
  },
  {
    "Molecule": "CC[C@H](C)[C@H](NC(=O)C12C3C4C1C1C2C3C41NC)C(=O)N(C)[C@H](C[C@@H](OC(C)=O)c1nc(C(=O)N[C@@H](Cc2ccccc2)C[C@H](C)C(=O)OC)cs1)C(C)C (stereo partly drawn)",
    "Measurement Target": "HCT-15 colon",
    "growth": "18.4% (inactive)"
  }
]

* * *

- System: SK-MEL-5 melanoma
- Procedure Details: NCI-60 one-dose screen, 48 h
- Test Settings: 10 µM unless noted
About 83,000 compounds went through this panel and 20% of them were active in at least one assay; those are over-represented in the sample as a whole. Calls of active or inactive are those of the source. The calls were made as follows: active = growth percent below 10; inactive = the rest.
Classes used: active, inactive

[
  {
    "Compound": "COC(=O)CCC1=C(C)c2cc3[n-]c(cc4nc(cc5[n-]c(cc1n2)c(CCC(=O)OC)c5C)C=C4C)cc3C.[Cd+2]",
    "Class Name": "active"
  },
  {
    "Compound": "Fc1ccc(N2COOC3(OOC2)C2CC4CC(C2)CC3C4)cc1",
    "Class Name": "inactive"
  },
  {
    "Compound": "CC12CC=CCC1CCC1C2CCC2(C)C(c3ccc(=O)oc3)CCC12O (stereo not given)",
    "Class Name": "active"
  },
  {
    "Compound": "CC[C@H](C)[C@H](NC(=O)[C@H]1CCCCN1C)C(=O)N(C)[C@H](CCc1nc(C(=O)N[C@@H](Cc2ccccc2)C[C@H](C)C(=O)OC)cs1)C(C)C",
    "Class Name": "active"
  },
  {
    "Compound": "Clc1cccc(NCOOC2(OOCNc3cccc(Cl)c3)CCCCC2)c1",
    "Class Name": "inactive"
  },
  {
    "Compound": "CNC(=O)Oc1ccc(N(C)C)cc1C(C)C",
    "Class Name": "inactive"
  },
  {
    "Compound": "COC(=O)[C@@H](C)C[C@H](Cc1ccc(F)cc1)NC(=O)c1csc([C@@H](C[C@H](C(C)C)N(C)C(=O)[C@@H](NC(=O)[C@H]2CCCCN2C)C2CC2)OC(C)=O)n1",
    "Class Name": "active"
  },
  {
    "Compound": "CCOC(=O)C(Cc1ccc(N(CCCl)CCCl)cc1)NC(=O)C(CC(C)C)NC(C)=O (stereo not given)",
    "Class Name": "inactive"
  },
  {
    "Compound": "O=C(Nc1ccc(Br)cc1)c1cc(Br)cc(Br)c1O",
    "Class Name": "active"
  },
  {
    "Compound": "OCc1ccc2c(c1)OCO2",
    "Class Name": "inactive"
  },
  {
    "Compound": "Clc1ccc(N2COOC3(OOC2)C2CC4CC(C2)CC3C4)cc1",
    "Class Name": "inactive"
  },
  {
    "Compound": "O=NNc1ccccn1",
    "Class Name": "inactive"
  },
  {
    "Compound": "CCCCCCCC(=O)OCC(=O)[C@]1(O)Cc2c(O)c3c(c(O)c2[C@@H](OC2CC(N)C(O)C(C)O2)C1)C(=O)c1c(OC)cccc1C3=O (stereo not given in full)",
    "Class Name": "active"
  },
  {
    "Compound": "Cc1cnc(/C=C/C(=O)O)cc1-c1cc2c(cc1C)C(C)(C)CCC2(C)C",
    "Class Name": "inactive"
  },
  {
    "Compound": "O=[N+]([O-])c1c(Br)sc(Br)c1[N+](=O)[O-]",
    "Class Name": "inactive"
  }
]

* * *

- Test system: IGROV1 ovarian
- Procedure Details: NCI-60 one-dose screen, 48 h
- Test Settings: 10 µM unless noted
This is part of a sample that, as a whole, favours compounds with a hit. Of some 83,000 tested, about 20% had one in any assay. Active and inactive are the calls of the source. The calls were made as follows: active = growth percent below 10; inactive = the rest.
Outcomes: active, inactive

[
  {
    "Compound": "COC(=O)[C@@H](C)C[C@H](Cc1ccccc1)NC(=O)c1nc([C@@H](C[C@H](C(C)C)N(C)C(=O)[C@@H](NC(=O)[C@H]2CCCCN2C)C(C)C)OC(C)=O)sc1C(C)C",
    "Class Name": "inactive"
  },
  {
    "Compound": "CCCCCCC(=O)NC1=C(N2CC2)C(=O)C(NC(=O)CCCCCC)=C(N2CC2)C1=O",
    "Class Name": "inactive"
  },
  {
    "Compound": "CN(C)C1C(=O)C(C(N)=O)=C(O)C2(O)C(=O)C3=C(O)c4c(O)cccc4C(C)(O)C3CC12.[Cl][Sb]([Cl])[Cl] (configuration not stated)",
    "Class Name": "inactive"
  },
  {
    "Compound": "CCCCC1(CCC)C(=O)NC(=S)NC1=O",
    "Class Name": "inactive"
  },
  {
    "Compound": "O=C(CC1(O)C(=O)N(Cc2ccccc2)c2ccc(Cl)cc21)c1ccc(C(=O)NCC2CCC3(CC2)OOC2(CCCCC2)OO3)cc1 (configuration not stated)",
    "Class Name": "active"
  },
  {
    "Compound": "COC(=O)[C@@H](C)C[C@H](Cc1ccccc1)NC(=O)c1csc([C@@H](C[C@H](C(C)C)N(C)C(=O)C2(NC(=O)[C@H]3CCCCN3C)CCC2)OC(C)=O)n1",
    "Class Name": "inactive"
  },
  {
    "Compound": "C[C@]12CC[C@H]3[C@@H](C[C@@H]4SC(Nc5ccccc5)=N[C@@]45CC(O)CC[C@]35C)[C@@H]1CCC2O (some centres not stated)",
    "Class Name": "inactive"
  }
]
